# credit: patent US20240117054A1

- Test target: T1, cynomolgus monkey FLT3 (cFLT3) expressed on RMA cells (cynomolgus monkey, UniProt A0A2K5VQ48 27-993)
- T1 construct: whole, on cells; also called RMA-cFLT3; cynomolgus FLT3
- T1 sequence: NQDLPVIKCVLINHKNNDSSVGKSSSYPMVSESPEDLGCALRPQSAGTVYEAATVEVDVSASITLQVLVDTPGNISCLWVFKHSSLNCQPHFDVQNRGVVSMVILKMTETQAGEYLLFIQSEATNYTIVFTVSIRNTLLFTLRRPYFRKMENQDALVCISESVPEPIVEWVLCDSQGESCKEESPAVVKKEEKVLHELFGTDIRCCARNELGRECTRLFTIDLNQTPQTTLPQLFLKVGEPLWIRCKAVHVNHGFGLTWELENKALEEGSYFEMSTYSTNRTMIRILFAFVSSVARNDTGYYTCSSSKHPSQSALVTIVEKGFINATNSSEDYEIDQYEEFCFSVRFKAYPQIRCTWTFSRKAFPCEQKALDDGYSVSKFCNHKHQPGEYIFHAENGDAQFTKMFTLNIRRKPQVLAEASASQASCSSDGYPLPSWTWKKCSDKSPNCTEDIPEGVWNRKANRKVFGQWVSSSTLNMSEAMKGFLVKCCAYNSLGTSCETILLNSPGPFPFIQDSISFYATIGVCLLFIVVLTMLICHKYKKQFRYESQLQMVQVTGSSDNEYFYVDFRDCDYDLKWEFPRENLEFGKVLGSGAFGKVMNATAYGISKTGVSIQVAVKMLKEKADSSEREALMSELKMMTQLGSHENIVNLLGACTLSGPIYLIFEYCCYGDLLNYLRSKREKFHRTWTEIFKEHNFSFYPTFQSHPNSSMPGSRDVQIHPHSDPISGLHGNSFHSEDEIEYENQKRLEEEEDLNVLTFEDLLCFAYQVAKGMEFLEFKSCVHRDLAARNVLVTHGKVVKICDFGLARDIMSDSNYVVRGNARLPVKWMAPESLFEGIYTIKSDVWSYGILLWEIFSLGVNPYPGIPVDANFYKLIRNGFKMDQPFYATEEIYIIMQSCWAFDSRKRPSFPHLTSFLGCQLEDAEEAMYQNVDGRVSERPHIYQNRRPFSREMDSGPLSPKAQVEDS
- Test method notes: flow cytometry, purified mAb on RMA-cFLT3 cells
pEC50: −log10 of the molar value.

Binder	pEC50
4A4.A3 (antibody, V domains shown, Purified murine mAb from a hybridoma subclone) VH: QVTLKESGPGILQPSQTLSLTCSFSGFSLTTYGMGVGWIRQPSGKGLEWLANIWFNDNKYYNSTLKSRLTISKDTSNNQVFLKISSVDTTDTATYYCAQITTVVGTFDYWGQGSPLTVSP VL: RIVMTQSPTTMAASPGEKITITCSASSSISSIYLHWYQQKPGFSPKLLIFRTSDLASGVPPRFGGSGSGTSYSLTIGTMEAEDVATYYCQQGSSFPRTFGGGTKLEIK	8.97
14A5.E8 (antibody, V domains shown, Purified murine mAb from a hybridoma subclone) VH: EVQLQESGAELVQPGASVRLSCKASGYTFTSYWINWVKQRPGQGLEWIGNIYPGSSIINYNENFKNRATLTVDTSSSTAYMQLSSLTSDDSAVYYCARRVVYLYFDYWGQGTTLTVSS VL: QIVLTQSPAIMSASPGEKVTMTCSASSSVSYMHWYQQKSGTSPKRWIYDTSKLASGVPARFSGSGSGTSYSLTISSMEAEDAATYYCQQWTSKSPTFGGGTKLEIK	8.90
12H10.G7 (antibody, V domains shown, Purified murine mAb from a hybridoma subclone) VH: EVQLQESGPELVKPGASVKMSCKASGYTFTRYVMHWVKQRPGQGLEWIGFINPYNDDTKYNEKFKGKATLTSDKSSSTAYMELSSLTSEDSAVYHCARWRQLGSLDSWGQGTTLTVSS VL: NIVLTQSPASLAVSLGQRATISCRASESVDTYGSSFVHWYQQKPGQPPKLLIYLASNLESGVPARFSGSGSRSDFTLTIDPVEADDAATYYCQQNNEEPWTFGGGTKLEIK	9.03
1A2.A3 (antibody, V domains shown, Purified murine mAb from a hybridoma subclone) VH: EVQLQESGPELVKPGASVKISCKASGYSFTGYYIHWVKQSPEESLEWIGEIYPNTGITTYNQKFTAKATLTVDKSSNTAYMQLKSLTSEDSAVYYCTRWGDYYGRDYWGQGTSVTVSS VL: DIVLTQSPASLAVSLGQRATISCRASETVDTHGNSFMHWYQQKPGQPPKLLIYRASNLESGIPARFSGSGSRTDFTLTINPVEADDVATYYCQQSNEDPRTFGGGTKLEIK	8.74
4H2.E3 (antibody, V domains shown, Purified murine mAb from a hybridoma subclone) VH: EVQLQESGPELVKPGASVKMSCKASGYTFTSYLMHWMKQKPGQGLEWIGYINPYSDGIKYNEKFRDKATLTSDKSSNTAYMELSSLTSEDSAVYYCAHSSGYVGYAMDYWGQGTSVTVSS VL: GIVMTQTTPSVPVTPGESVSISCRSSKSLLHSNGNTYLYWFLQRPGQSPQLLIYRMSNLASGVPDRFSGSGSGTTFTLRISRVEAEDVGVYYCMQHLEYPFTFGSGTKLEIK	8.81
15A11.C8 (antibody, V domains shown, Purified murine mAb from a hybridoma subclone) VH: EVQLQESGGGLVKTGGSRKLSCAASGFTFSDYGMHWVRHTPEKGLEWVVYISSGGNTIFYTDTVKGRFTISRDNAKNTLFLQMTSLRSEDTAVYFCVRQGYYYAMDYWGQGASVTVSS VL: DIQMTQTTSSLSASLGDRVTIRCRASQDITNYLNWYQQKPDGAVKLLISYTSILQSGVPSRFSGSGSGTDYSLTISNLEQGDVATYFCQQGSSLPWTFGGGTKLEIK	9.09
11F4.B9 (antibody, V domains shown, Purified murine mAb from a hybridoma subclone) VH: EVQLQESGPELVKPGASVKISCKASGYSFTGYYIHWVKQGPEKSLEWIGEIIPSTGSTIYNQKFKAKATLTVDKSSSTAYLQLKSLTSEDSAVYYCERWGDYYGRDYWGQGTSVTVSS VL: DIVLTQSPASLAVSLGQRATISCRASESVDIYGNSFMHWYQQKPGQPPKLLIYRASNLESGIPARFSGSGSRTDFTLTINPVEADDVATYYCQQSNEDPRTFGGGTKLEIK	8.91
